Data provenance: ChEMBL document CHEMBL4052714

system: Staphylococcus aureus; assay: Antibacterial activity against erythromycin-susceptible Staphylococcus aureus ATCC 25923; type: functional
Provide the reported MIC of each item.

MIC for "CC[C@H]1OC(=O)[C@H](C)[C@@H](O[C@H]2C[C@@](C)(OC)[C@@H](OC(=O)NCc3cn(Cc4ccc([N+](=O)[O-])cc4)nn3)[C@H](C)O2)[C@H](C)[C@@H](O[C@@H]2O[C@H](C)C[C@H](N(C)C)[C@H]2O)[C@](C)(O)C[C@@H](C)CN(C)[C@H](C)[C@H]2OC(=O)O[C@@]21C" ?
4 µg/mL

Cool, now "CC[C@H]1OC(=O)[C@H](C)[C@@H](O[C@H]2C[C@@](C)(OC)[C@@H](OC(=O)NCc3cn(Cc4c(Cl)cccc4Cl)nn3)[C@H](C)O2)[C@H](C)[C@@H](O[C@@H]2O[C@H](C)C[C@H](N(C)C)[C@H]2O)[C@](C)(O)C[C@@H](C)CN(C)[C@H](C)[C@@H](O)[C@]1(C)O"
1 µg/mL

Cool, now "CC[C@H]1OC(=O)[C@H](C)[C@@H](O[C@H]2C[C@@](C)(OC)[C@@H](OC(=O)NCc3cn(Cc4ccccc4)nn3)[C@H](C)O2)[C@H](C)[C@@H](O[C@@H]2O[C@H](C)C[C@H](N(C)C)[C@H]2O)[C@](C)(O)C[C@@H](C)CN(C)[C@H](C)[C@@H](OC(=O)NCCc2ccccc2)[C@]1(C)O"
0.25 µg/mL

====

system: Streptococcus pneumoniae; assay: Potency index, ratio of azithromycin MIC to compound MIC for erythromycin-resistant Streptococcus pneumoniae AB11 expressing ermB/mefA gene; assay type: functional
Readout: Ratio

Ratio for "CC[C@H]1OC(=O)[C@H](C)[C@@H](O[C@H]2C[C@@](C)(OC)[C@@H](OC(=O)NCc3cn(Cc4ccc(C)cc4)nn3)[C@H](C)O2)[C@H](C)[C@@H](O[C@@H]2O[C@H](C)C[C@H](N(C)C)[C@H]2O)[C@](C)(O)C[C@@H](C)CN(C)[C@H](C)[C@@H](OC(=O)NCc2ccc(OC)cc2)[C@]1(C)O" ?
1024 - 2048

Cool, now "CC[C@H]1OC(=O)[C@H](C)[C@@H](O[C@H]2C[C@@](C)(OC)[C@@H](OC(=O)NCc3cn(Cc4ccccc4Cl)nn3)[C@H](C)O2)[C@H](C)[C@@H](O[C@@H]2O[C@H](C)C[C@H](N(C)C)[C@H]2O)[C@](C)(O)C[C@@H](C)CN(C)[C@H](C)[C@@H](OC(=O)NCc2ccc(OC)cc2)[C@]1(C)O"
1024 - 2048

====

test system: Streptococcus pneumoniae; assay: Antibacterial activity against erythromycin-susceptible Streptococcus pneumoniae ATCC 49619; assay type: functional
Provide the reported MIC of each item.
Provide only the numeric value, understood in µg/mL.

MIC for "CC[C@H]1OC(=O)[C@H](C)[C@@H](O[C@H]2C[C@@](C)(OC)[C@@H](OC(=O)NCc3cn(Cc4ccccc4Cl)nn3)[C@H](C)O2)[C@H](C)[C@@H](O[C@@H]2O[C@H](C)C[C@H](N(C)C)[C@H]2O)[C@](C)(O)C[C@@H](C)CN(C)[C@H](C)[C@@H](OC(=O)NCc2ccc(OC)cc2)[C@]1(C)O" ?
0.125

Cool, now "CC[C@H]1OC(=O)[C@H](C)[C@@H](O[C@H]2C[C@@](C)(OC)[C@@H](OC(=O)NCc3cn(Cc4ccc(C)cc4)nn3)[C@H](C)O2)[C@H](C)[C@@H](O[C@@H]2O[C@H](C)C[C@H](N(C)C)[C@H]2O)[C@](C)(O)C[C@@H](C)CN(C)[C@H](C)[C@@H](OC(=O)NCc2ccc(OC)cc2)[C@]1(C)O"
0.125

Cool, now "CC[C@H]1OC(=O)[C@H](C)[C@@H](O[C@H]2C[C@@](C)(OC)[C@@H](OC(=O)NCc3cn(Cc4ccccc4)nn3)[C@H](C)O2)[C@H](C)[C@@H](O[C@@H]2O[C@H](C)C[C@H](N(C)C)[C@H]2O)[C@](C)(O)C[C@@H](C)CN(C)[C@H](C)[C@@H](O)[C@]1(C)O"
0.5
